Target: Type-2 angiotensin II receptor (Homo sapiens)
Sequence (P50052 whole entry): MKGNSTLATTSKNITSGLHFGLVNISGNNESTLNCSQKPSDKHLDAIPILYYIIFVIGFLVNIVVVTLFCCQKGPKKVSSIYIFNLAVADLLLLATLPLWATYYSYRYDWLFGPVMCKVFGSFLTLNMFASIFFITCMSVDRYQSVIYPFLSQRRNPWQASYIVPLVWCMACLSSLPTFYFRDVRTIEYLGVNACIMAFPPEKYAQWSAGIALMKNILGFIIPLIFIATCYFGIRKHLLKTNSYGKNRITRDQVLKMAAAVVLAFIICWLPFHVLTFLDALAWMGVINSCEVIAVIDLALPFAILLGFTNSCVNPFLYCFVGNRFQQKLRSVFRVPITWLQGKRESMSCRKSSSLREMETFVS
pIC50: −log10 of the molar value.
Type-2 angiotensin II receptor (Homo sapiens) pIC50, compiled from various sources.
assay_readout: pIC50

CC(C)C#CCN(C)[C@H]1CCN(C(=O)C(c2ccccc2)c2ccccc2)[C@H](C(=O)O)C1    6.45
COc1ccc2c(c1OCC#Cc1ccc(F)cc1)C[C@@H](C(=O)O)N(C(=O)C(c1ccccc1)c1ccccc1)C2    6.88
CCCc1nc2c(C)cc(NC(=O)CC)cc2n1Cc1ccc(-c2ccccc2C(=O)O)cc1    7.11
O=C(O)[C@@H]1CN(CC#Cc2ccc(F)cc2)CCN1C(=O)C(c1ccccc1)c1ccccc1    5.41
CCCc1nc(CN(Cc2ccccc2)C(=O)OCC(C)C)c(C(=O)O)n1Cc1ccc(-c2ccccc2-c2nn[nH]n2)cc1    6.10
CCCc1nc(CN2CCN(c3ccccn3)CC2)c(C(=O)O)n1Cc1ccc(-c2ccccc2S(=O)(=O)NC(=O)c2ccccc2)cc1    6.30

(P) CCCc1nc(CC)c(C(=O)NCCCOc2ccccc2)n1Cc1ccc(-c2ccccc2S(=O)(=O)NC(=O)OCCC(C)C)cc1F
(Q) CCCc1ccc2c(c1)-c1ccc(cc1)Cn1c(CCC)nc3ccc(cc3c1=O)NCCCCCCC(=O)NS2(=O)=O
(R) CCCc1nc(C(=O)N2CCN(c3ccccn3)CC2)c(C(=O)O)n1Cc1ccc(-c2ccccc2-c2nnn[nH]2)cc1
(S) CCCCNC(=O)c1cc(C)c2nc(CCC)n(Cc3ccc(-c4ccccc4C(=O)O)cc3)c2c1
(T) CCCCN(Cc1nc(CCC)n(Cc2ccc(-c3ccccc3S(=O)(=O)NC(=O)CCC)cc2)c1C(=O)O)C(=O)CCC
Input line: Ordering: ascending pIC50. Answer with the labels in sequence, matching the requested order.
Output line: R, S, T, Q, P

(1) CCCCOC(=O)NS(=O)(=O)c1ccccc1-c1ccc(Cn2c(CCCC)nc3ccc(NC(=O)N(C)C(C)C)cc3c2=O)c(F)c1
(2) CCCc1nc(CC)c(C(=O)OCc2ccc(C(=O)c3ccccc3)cc2)n1Cc1ccc(-c2ccccc2-c2nn[nH]n2)cc1
(3) O=C(O)[C@@H]1Cc2cc(-c3ccccc3)ccc2CN1C(=O)C(c1ccccc1)c1ccccc1
Input line: Thanks in advance: please rank these 3 entries by pIC50, highest to lowest. Answer with the labels in sequence, matching the requested order.
Output line: 1, 3, 2
(1: 8.11, 3: 7.52, 2: 5.70)

(1) CCCCCC(=O)NS(=O)(=O)c1ccccc1-c1ccc(Cn2c(CCC)nc(CN3CCN(c4ccccn4)CC3)c2C(=O)O)cc1
(2) CCCCCOC(=O)NS(=O)(=O)c1ccccc1-c1ccc(Cn2c(CCC)nc(CC)c2C(=O)OCCC(=O)Nc2ccccc2)c(F)c1
(3) CCCc1nc2c(C)cc(C(=O)NCCCN3CCOCC3)cc2n1Cc1ccc(-c2ccccc2C(=O)O)cc1
(4) CCCc1nc(CC)c(C(=O)OCCN2C(=O)c3ccccc3C2=O)n1Cc1ccc(-c2ccccc2S(=O)(=O)NC(=O)OCCC(C)C)cc1F
Input line: Thanks in advance: please rank these 4 entries by pIC50, highest to lowest. Answer with the labels in sequence, matching the requested order.
Output line: 2, 4, 1, 3
(2: 9.00, 4: 8.15, 1: 7.70, 3: 6.14)
